Test system: UACC-257 melanoma
Assay: NCI tumour cell line growth inhibition, 48 h
Each entry below carries its recorded TGI.

Examples with their reported TGI follow.
molecule=N#CC(C#N)=C1C(=Cc2ccc(OCCCCCCCCCCSSCCCCCCCCCCOc3ccc(C=C4C(=C(C#N)C#N)c5ccccc5C4=C(C#N)C#N)cc3)cc2)C(=C(C#N)C#N)c2ccccc21 observed_property=TGI obs_value="> 100 µM"
molecule="O=c1n(CC2CO2)c(=O)n(CC2CO2)n1CC1CO1 (configuration not stated)" observed_property=TGI obs_value="95.6 µM"
molecule=COc1cccc(-c2nc3ccccc3c(=O)[nH]2)c1 observed_property=TGI obs_value="56.2 µM"
molecule=O=[N+]([O-])c1cccc2nc3ccccc3c(NCCCCNc3c4ccccc4nc4cccc([N+](=O)[O-])c34)c12 observed_property=TGI obs_value="0.682 µM"
molecule=CCOC(=O)Nc1nc2ccc(OCC)cc2s1 observed_property=TGI obs_value="> 100 µM"
molecule="Cc1cc(=O)[nH]c(NNC(C#N)c2cccc(O)c2)n1 (configuration not stated)" observed_property=TGI obs_value="> 100 µM"

TGI lookup needed for CC1OC(OC2C(OC(=O)[C@]34CCC(C)(C)C[C@H]3C3=CC[C@@H]5[C@@]6(C)CC[C@H](OC7OC(C(=O)O)C(O)C(O)C7O)C(C)(C)[C@@H]6CC[C@@]5(C)[C@]3(C)C[C@H]4O)OCC(O)C2O)C(O)C(O)C1OC1OCC(OC2OCC(O)C(O)C2O)C(O)C1O (some centres not stated) , thanks.
23 µM

---

Each entry below carries its recorded TGI.
Tested on: HCT-15 colon
Test: NCI tumour cell line growth inhibition, 48 h

Examples with their reported TGI follow.
compound=COc1cc2nc(C)nc(N[C@H](C)c3cc(N)cc(C(F)(F)F)c3)c2cc1O[C@H]1CCOC1 obs_value="27.6 µM"
compound=Cc1ccc2c(c1)[nH]c(=S)n2C=C(C(N)=O)C(N)=O obs_value="> 100 µM"
compound=COc1ccccc1NC(=O)CC(=O)n1nc(C)c(N=Nc2ccccc2C(=O)O)c1C obs_value="> 100 µM"

Fill in the recorded TGI for this compound, with HCT-15 colon as test system: O=C1NC2(CCCCC2)C2CCCCC(O)C12 (configuration not stated)
> 100 µM

Then CCCCCCCC(=O)SCC/C=C/[C@@H]1CC(=O)NCc2cccc(n2)C2=N[C@@](C)(CS2)C(=O)N[C@@H](C(C)C)C(=O)N1 ?
> 33.3 µM

Then CC(=O)Nc1oc(C)c(C)c1S(=O)(=O)c1ccc(Cl)cc1 ?
> 100 µM

Then O=c1n(CC2CO2)c(=O)n(CC2CO2)n1CC1CO1 (configuration not stated) ?
44.3 µM

Then c1cc2c(cc1NC1=NCCO1)CCC2 ?
> 10 µM

Then COc1cc(/C=C/c2cc(/C=C/c3ccc(O)c(OC)c3)n(C(=O)Nc3ccc(F)cc3)n2)ccc1O ?
21.8 µM

Then O=C(CN1CCN(c2cc3c(cc2F)c(=O)c(C(=O)N/N=C/c2ccccc2O)cn3C2CC2)CC1)N/N=C\c1ccccc1O ?
> 100 µM

Then CCOC(=O)C(Sc1ccccc1)c1c(OC)cc(=O)oc1/C=[N+](/[O-])c1ccc(N(C)C)cc1 (configuration not stated) ?
31.8 µM

Then Cc1cc2nc(C(Cl)Cl)nc(-c3ccc(Cl)cc3)n2n1 ?
3.47 µM

Then C[N+](C)(CCCn1ccnc1[N+](=O)[O-])CCCn1ccnc1[N+](=O)[O-] ?
> 100 µM

Then CCOc1ccccc1-n1c(CN2CCN(C(=O)COc3ccc(CNCCCCCCN4C5CCCC4CC(OC(=O)Nc4cc(C)ccc4OC)C5)cc3)CC2)nc2ccccc2c1=O (configuration not stated) ?
5.4 µM

---

System: OVCAR-4 ovarian
Experiment: NCI tumour cell line growth inhibition, 48 h
observed property: GI50

compound=O=C(NCCNc1nccc(-c2c(-c3cccc(O)c3)nc3sccn23)n1)c1ccccc1O obs_value="6.67 µM"
compound=Cc1cc(=O)n2[nH]c(-c3ccc(C(C)(C)C)cc3)cc2n1 obs_value="12.7 µM"

GI50 lookup needed for COc1ccc2c(c1)C(=O)/C(=C/c1ccc(OCC(=O)Nc3nccs3)cc1)O2 , thanks.
2.26 µM

Then C[C@@H](CS(C)(=O)=O)Nc1ncc2cc(Oc3ccc(F)cc3F)c(=O)n(C)c2n1 ?
> 25 µM

Then O=c1n(CC2CO2)c(=O)n(CC2CO2)n1CC1CO1 (centres undefined) ?
19.2 µM

Then Cc1cnc(NC(=O)C(Cc2ccccc2)NC(=O)c2ccccc2)s1 (centres undefined) ?
16.3 µM

Then O=C1/C(=C/c2ccc([N+](=O)[O-])cc2)COc2ccc(O)c(O)c21 ?
1.44 µM

Then Oc1ccc(Cl)cc1-c1cc(-c2ccccc2Cl)[nH]n1 ?
0.28 µM

Then O=[N+]([O-])c1cnc(Sc2ccncn2)s1 ?
1.76 µM

---

Tested on: UACC-62 melanoma
Assay: NCI tumour cell line growth inhibition, 48 h
Each entry below carries its recorded TGI.
Give the value, in units of µM, as a plain number.

Examples with their reported TGI follow.
substance_smiles=O=[N+]([O-])c1cnc(Sc2ccncn2)s1 obs_value=16.9
substance_smiles=CN(C)CCCN1c2ccc([N+](=O)[O-])cc2CCc2cccc([N+](=O)[O-])c21 obs_value=10.4
substance_smiles=O=C1c2ccccc2C(=O)c2sc(Nc3cccc(Cl)c3)nc21 obs_value=3.25
substance_smiles=COc1cc2nc(-c3ccc(C(F)(F)F)cc3)cc(OCCCN3CCC(O)CC3)c2cc1OC obs_value=7.28
substance_smiles=Cc1c(-c2ccc(O)cc2)n(CCCCCCNCCOC(=O)NCCCc2ccc(N(CCCl)CCCl)cc2)c2ccc(O)cc12 obs_value=3.26

Kindly consider the entry below.
TGI lookup needed for Cc1nc2c(nc1C)C(=O)c1ccccc1C2=O , thanks.
2.42

---

Test system: SNB-75 CNS
Experiment: NCI tumour cell line growth inhibition, 48 h
observed property: GI50

Examples with their reported GI50 follow.
molecule=CCc1ccc2c(c1)C(=O)c1c-2n(CCCBr)c(=O)c2cc([N+](=O)[O-])ccc12 obs_value="7880 nM"
molecule=O=C1c2cccnc2-c2nc(-c3ccccc3[N+](=O)[O-])cc3c2c1nc1ccccc13 obs_value="17300 nM"
molecule=O=C(Nc1ccc(F)cc1F)c1cc(I)ccc1O obs_value="1360 nM"

Kindly consider the entry below.
Fill in the recorded GI50 for this molecule, with SNB-75 CNS as test system: COc1ccc2c(c1)C(=O)/C(=C/c1ccc(OCC(=O)Nc3nccs3)cc1)O2
629 nM

---

Each entry below carries its recorded log10 of TGI.
Test system: COLO 205 colon
Assay: NCI tumour cell line growth inhibition, 48 h
Scale: decimal log of TGI, TGI in µM.

Examples with their reported log10 of TGI follow.
compound=N#Cc1cccc2c1Sc1ccccc1N2 obs_value=1.78
compound=Cc1ccc(N=N/C(=N/NC(=O)c2cc(Cl)ccc2O)c2ccc(N(CCC#N)CCC#N)cc2C)cc1 obs_value=1.65
compound=O=C(Nc1ccc(F)cc1F)c1cc(I)ccc1O obs_value=1.34
compound="C=CCC1(O)CC(n2cc(C)c(=O)[nH]c2=O)OC1CO[Si](C)(C)C(C)(C)C (stereo unspecified)" obs_value=1.63
compound="Cc1cnc(NC(=O)C(Cc2ccccc2)NC(=O)c2ccccc2)s1 (stereo unspecified)" obs_value=1.47
compound="COC(=O)Nc1nc2ccc(S(=O)c3ccccc3)cc2[nH]1 (stereo unspecified)" obs_value=0.89

log10 of TGI lookup needed for CCCCCCCC(=O)SCC/C=C/[C@@H]1CC(=O)NCc2cccc(n2)C2=N[C@@](C)(CS2)C(=O)N[C@@H](C(C)C)C(=O)N1 , thanks.
0.21

Then O=c1n(CC2CO2)c(=O)n(CC2CO2)n1CC1CO1 (stereo unspecified) ?
1.62

---

Each entry below carries its recorded TGI.
Tested on: SF-539 CNS
Assay: NCI tumour cell line growth inhibition, 48 h
Give the value, in units of µM, as a plain number.

molecule="C/C=C/C(C#N)(/C=C/c1ccccc1)OP1(=O)OC(c2ccccc2)C(C)N1C (centres undefined)" observed_property=TGI obs_value=35.1

TGI lookup needed for O=[N+]([O-])C(=C(Cl)Cl)C(Cl)=C(Cl)Cl , thanks.
3.45

---

Tested on: MOLT-4 leukemia
Assay: NCI tumour cell line growth inhibition, 48 h
Each entry below carries its recorded TGI.

Examples with their reported TGI follow.
molecule="CC1=C(C(=O)OCCO[N+](=O)[O-])C(c2cccc([N+](=O)[O-])c2)C(C(=O)OC(C)C)=C(C)N1 (centres undefined)" assay_system="MOLT-4 leukemia" obs_value="> 100 µM"
molecule=COc1cc2c(cc1OC)[C@@H]1[C@H](C#N)C(=O)C(C)(C)N1CC2 assay_system="MOLT-4 leukemia" obs_value="> 100 µM"
molecule=C=C1C(=O)[C@@]23CC[C@H]4[C@@](C)(CCC[C@@]4(C)C(=O)OC)[C@@H]2CC[C@]1(O)C3 assay_system="MOLT-4 leukemia" obs_value="0.98 µM"
molecule=S=C1NCCN1 assay_system="MOLT-4 leukemia" obs_value="> 100 µM"
molecule="C=C(CNCCO)[C@@H]1CC[C@]2(CO)CC[C@]3(C)[C@H](CC[C@@H]4[C@@]5(C)CCC(N)C(C)(C)[C@@H]5CC[C@]43C)[C@@H]12 (some centres undefined)" assay_system="MOLT-4 leukemia" obs_value="5.84 µM"

TGI lookup needed for CCNC1C2(CCCCC2)NC(=O)C12CCCCC2 (centres undefined) , thanks.
> 100 µM

Then O=C1c2cccnc2-c2nc(-c3ccccc3[N+](=O)[O-])cc3c2c1nc1ccccc13 ?
> 100 µM

Then CC(=O)c1cccc(Nc2nc3ccccc3c3occc23)c1 ?
> 100 µM

Then O=C(O)CCC(NC(=O)c1ccc(OCc2nc3cc(C(F)(F)F)ccc3nc2-c2ccccc2)cc1)C(=O)O (centres undefined) ?
> 100 µM

Provenance of the data: PubChem BioAssay (NCI)
